test system: SK-MEL-2; test: NCI tumour cell line growth inhibition, 48 h
Active and inactive are the calls of the source. No stated cut-off is given here; in the data, active = GI50 up to about 1.1 µM and inactive = higher.
QUANTITY_NAME: GI50

- COMPOUND: "NNC(=O)N/N=C1/C(=O)N(c2ccc(Cl)c(Cl)c2)C(=O)C(=O)C1c1nc2ccccc2o1 (stereo not given)"
  QUANTITY_NAME: "GI50"
  REPORTED_VALUE: "> 100 µM (inactive)"
- COMPOUND: "COc1ccc(N[C@H](C[S+]([O-])c2ccc(C)cc2)c2ccc(F)cc2)cc1 (stereo not given in full)"
  QUANTITY_NAME: "GI50"
  REPORTED_VALUE: "> 100 µM (inactive)"
- COMPOUND: "O=C(O)[C@@H]1CCCC[C@@H]1C(=O)N(C1CCCCC1)C1CCCCC1"
  QUANTITY_NAME: "GI50"
  REPORTED_VALUE: "> 100 µM (inactive)"
- COMPOUND: "COCCOC(=O)C1=C(O)c2ccccc2S(=O)(=O)N1C"
  QUANTITY_NAME: "GI50"
  REPORTED_VALUE: "> 100 µM (inactive)"
- COMPOUND: "COC(=O)c1c(O)ccc2c1c1c(n2Cc2ccc(Cl)cc2Cl)C(=O)c2ccccc2C1"
  QUANTITY_NAME: "GI50"
  REPORTED_VALUE: "60.4 µM (inactive)"
- COMPOUND: "CNS(=O)(=O)NNS(=O)(=O)c1ccc(C)cc1"
  QUANTITY_NAME: "GI50"
  REPORTED_VALUE: "> 100 µM (inactive)"
- COMPOUND: "O=C(/N=C(/Nc1ccccc1)SCS/C(=N\\C(=O)c1ccco1)Nc1ccccc1)c1ccco1"
  QUANTITY_NAME: "GI50"
  REPORTED_VALUE: "80.2 µM (inactive)"
- COMPOUND: "O=C(O)CN(CC(=O)O)C1CCCCC1N1CC(=O)OC(=O)C1 (stereo not given)"
  QUANTITY_NAME: "GI50"
  REPORTED_VALUE: "> 100 µM (inactive)"
- COMPOUND: "O=c1[nH]c2cc(Cl)ccc2nc1/C(=N/Nc1ccccc1)C(O)c1ccco1 (stereo not given)"
  QUANTITY_NAME: "GI50"
  REPORTED_VALUE: "> 100 µM (inactive)"
- COMPOUND: "CCOC(=O)C1C(NC(N)=O)N(Cc2ccccc2)C(=O)N1Cc1ccccc1 (stereo not given)"
  QUANTITY_NAME: "GI50"
  REPORTED_VALUE: "> 100 µM (inactive)"

====

tested on: RXF 393; test: NCI tumour cell line growth inhibition, 48 h
Calls of active or inactive are those of the source. Rule as the data show it: active = GI50 up to about 1.1 µM and inactive = higher.
Below, each entry is listed alongside its reported GI50.
QUANTITY_NAME: GI50

- MOLECULE: "CSc1nncc(-c2cc3c(c(SC)n2)CCCC3)n1"
  REPORTED_VALUE: "47.3 µM (inactive)"
- MOLECULE: "CCOC(=O)N1C/C(=C\\c2ccc(N(C)C)cc2)C(=O)/C(=C/c2ccc(N(C)C)cc2)C1"
  REPORTED_VALUE: "> 100 µM (inactive)"
- MOLECULE: "O=C1/C(=C/c2cccc([N+](=O)[O-])c2)COc2ccccc21"
  REPORTED_VALUE: "4.65 µM (inactive)"
- MOLECULE: "COc1cc(C(=O)CC2(O)C(=O)Nc3c(Cl)cc(Cl)cc32)ccc1O (stereo not given)"
  REPORTED_VALUE: "27.5 µM (inactive)"
- MOLECULE: "[N-]=[N+]=NC1=C(c2ccccc2)C(=O)c2cccc3cccc1c23"
  REPORTED_VALUE: "19.7 µM (inactive)"

====

system: RXF 631; assay: NCI tumour cell line growth inhibition, 48 h
Activity calls are given as the source filed them. No stated cut-off is given here; in the data, active = GI50 up to about 1.1 µM and inactive = higher.

- MOLECULE: "N#CN1CCC=C(c2cc3ccccc3[nH]2)C1"
  GI50: "281 µM (inactive)"
- MOLECULE: "O=C(O)[C@@H]1CCCC[C@@H]1C(=O)N(C1CCCCC1)C1CCCCC1"
  GI50: "> 100 µM (inactive)"
- MOLECULE: "CCCCCCCCCCCCCCNCC(OC)OC"
  GI50: "15.2 µM (inactive)"
- MOLECULE: "CC1CC[C@]2(C(=O)O)CCC3(C)C(=CC(=O)C4[C@@]5(C)CCC(=O)C(C)(C)C5CC[C@]43C)[C@@H]2[C@H]1C (stereo not given in full)"
  GI50: "27.3 µM (inactive)"
- MOLECULE: "Cc1cc(C2CCCCC2)n(O)c(=O)c1"
  GI50: "5.37 µM (inactive)"

====

test system: UACC-257; experiment: NCI tumour cell line growth inhibition, 48 h
The source made the active and inactive calls. Cut-off read from the data, not from the text of the source: active = GI50 up to about 1.1 µM and inactive = higher.

- COMPOUND: "c1ccc(CN(Cc2ccccn2)Cn2cccn2)nc1"
  TARGET_DESC: "UACC-257"
  GI50: "39 µM (inactive)"
- COMPOUND: "CCOC(=O)C(NNS(=O)(=O)c1ccc(C)cc1)S(=O)(=O)C(F)(F)C(F)(F)C(F)(F)C(F)(F)F (centres undefined)"
  TARGET_DESC: "UACC-257"
  GI50: "> 100 µM (inactive)"
- COMPOUND: "O=C1c2ccccc2OCC1/C=N/O (centres undefined)"
  TARGET_DESC: "UACC-257"
  GI50: "> 56.1 µM (inactive)"
- COMPOUND: "O=C1CC(c2ccc(Cl)cc2)C2(C(=O)NC(=S)NC2=O)C(c2ccc(Cl)cc2)C1 (centres undefined)"
  TARGET_DESC: "UACC-257"
  GI50: "18.5 µM (inactive)"
- COMPOUND: "CC1(C)CC(C)(C)CC(O)(C2(O)CC(C)(C)CC(C)(C)C2)C1"
  TARGET_DESC: "UACC-257"
  GI50: "> 100 µM (inactive)"
- COMPOUND: "N#C/C(=C\\c1ccc(Cl)cc1)c1nc(-c2cc3ccccc3oc2=O)cs1"
  TARGET_DESC: "UACC-257"
  GI50: "47.6 µM (inactive)"
- COMPOUND: "COC(=O)c1c(O)ccc2c1c1c(n2Cc2ccc(Cl)cc2Cl)C(=O)c2ccccc2C1"
  TARGET_DESC: "UACC-257"
  GI50: "42.2 µM (inactive)"
- COMPOUND: "CC1CC[C@@]2(OC1)O[C@H]1[C@H](O)[C@H]3[C@@H]4CC[C@H]5C[C@@H](OC6OC(CO)C(OC7OC(CO)C(O)C(OC8OCC(O)C(O)C8O)C7OC7OC(CO)C(O)C(O)C7OC7OC(CO)C(O)C(O)C7O)C(O)C6O)[C@H](O)C[C@]5(C)[C@H]4CC[C@]3(C)[C@H]1[C@@H]2C (some centres undefined)"
  TARGET_DESC: "UACC-257"
  GI50: "> 10 µM (inactive)"
- COMPOUND: "Cc1oc2c(c1C(=O)c1ccccc1)C(=O)c1ccccc1C2=O"
  TARGET_DESC: "UACC-257"
  GI50: "3.61 µM (inactive)"

====

GI50 values for the compounds below.
test system: LOX IMVI; experiment: NCI tumour cell line growth inhibition, 48 h
Active and inactive are the calls of the source. Cut-off read from the data, not from the text of the source: active = GI50 up to about 1.1 µM and inactive = higher.

- COMPOUND: "CC1CCC2C(C)C(=O)OC3OC4(C)CCC1C32OO4 (configuration not stated)"
  GI50: "97.9 µM (inactive)"
- COMPOUND: "c1ccc(-c2nc3ccccc3n3nnnc23)cc1"
  GI50: "> 100 µM (inactive)"
- COMPOUND: "Sc1nnc(-c2ccccc2Nc2ccccc2-c2nnc(S)n2-c2ccccc2)n1-c1ccccc1"
  GI50: "42.5 µM (inactive)"
- COMPOUND: "O=C(Cn1cc(-c2ccccc2)nn1)NC1CCCC1"
  GI50: "> 100 µM (inactive)"
- COMPOUND: "CCn1c(-c2ccc(/N=N/Nc3ccc(-c4n[nH]c(=S)n4CC)cc3)cc2)n[nH]c1=S"
  GI50: "3.46 µM (inactive)"
- COMPOUND: "CC(=O)NNc1nc(C)c(C(/C=C/c2ccccc2O)=N/NC(=O)c2ccncc2)s1"
  GI50: "> 100 µM (inactive)"
- COMPOUND: "O=[N+]([O-])/C=C/c1cc2ccccc2[nH]1"
  GI50: "14.2 µM (inactive)"
- COMPOUND: "CC1C2=C(O)CC(C)(C)CC2=NC2=C1C(=O)CC(C)(C)C2 (configuration not stated)"
  GI50: "> 100 µM (inactive)"
- COMPOUND: "NNC(=O)N/N=C1/C(=O)N(c2ccc(Cl)c(Cl)c2)C(=O)C(=O)C1c1nc2ccccc2o1 (configuration not stated)"
  GI50: "> 100 µM (inactive)"
- COMPOUND: "COc1cc2c(cc1OC)C1Cc3sccc3CN1CC2 (configuration not stated)"
  GI50: "> 100 µM (inactive)"
- COMPOUND: "CN(C)c1ccc(/C=C(\\NC(=O)c2ccccc2)c2nc3ccc4c(c3[nH]2)C(=O)c2ccccc2C4=O)cc1"
  GI50: "20.2 µM (inactive)"
- COMPOUND: "O=c1c2ccccc2nc2n1-c1ccccc1SC2"
  GI50: "> 100 µM (inactive)"
- COMPOUND: "C#CC(O)/C=C/C(O)CCCC(O)CC#CC(O)C#CCCCCC(O)/C=C/CCCC(=O)CCCCCCCCCCCCCCCC(O)C(O)C#CC(=O)O (configuration not stated)"
  GI50: "5.37 µM (inactive)"
- COMPOUND: "COc1c2ccoc2c(OC)c2oc(=O)ccc12 [ISOPIMPINELLIN]"
  GI50: "> 100 µM (inactive)"
- COMPOUND: "COC(=O)NC(=O)NC(Cc1ccccc1)NC(=O)OCc1ccccc1 (configuration not stated)"
  GI50: "> 100 µM (inactive)"
- COMPOUND: "Cc1ccc(S(=O)(=O)Oc2ccc(OS(=O)(=O)c3ccc(C)cc3)c3c2C(=O)c2ccccc2C3=O)cc1"
  GI50: "> 100 µM (inactive)"
- COMPOUND: "O=[N+]([O-])c1ccc(Cl)c2c([N+](=O)[O-])cccc12"
  GI50: "3.71 µM (inactive)"
- COMPOUND: "O=Cc1ccc(-c2cc(C=O)c(-c3cccs3)[nH]2)s1"
  GI50: "25.3 µM (inactive)"
- COMPOUND: "CC1=C[P+](Cc2ccccc2)(c2ccccc2)CC1 (configuration not stated)"
  GI50: "77.3 µM (inactive)"
- COMPOUND: "COCOCC/C=C/C=O"
  GI50: "> 100 µM (inactive)"
- COMPOUND: "CC(Oc1ccc(Oc2cnc3ccc(Cl)cc3n2)cc1)C(=O)O (configuration not stated)"
  GI50: "51.6 µM (inactive)"
- COMPOUND: "CN1C(=O)C(O)CC1c1ccc(C(F)(F)F)cc1 (configuration not stated)"
  GI50: "> 100 µM (inactive)"
